Measurement Notes: Stability of small molecule-linker conjugates in presence of excess free sulfhydryl (Cys), RP-HPLC
Type: physicochemical
Setup Conditions: PBS with Cys 0.41 mg/mL, pH=7.4, 37° C., 7 days; peak area at t=0 defined as 100%
Overview of recorded Remaining amount for various compounds
Record the value in %, omitting the unit from your answer.

The cases that follow already have their Remaining amount on record.
COC(=O)CC(SCCO)C(=O)NCCCCCC(=O)Nc1ccccc1 (stereo not drawn) [Conjugate-2] :: 98
O=C(CCCCCN1C(=O)CC(SCc2ccccc2)C1=O)Nc1ccccc1 (stereo not drawn) [Conjugate-3′] :: 49
COC(=O)CC(SCc1ccccc1)C(=O)NCCCCCC(=O)Nc1ccccc1 (stereo not drawn) [Conjugate-3] :: 93
O=C(CCCCCN1C(=O)CC(SCCO)C1=O)Nc1ccccc1 (stereo not drawn) [Conjugate-2′] :: 61
CC(=O)N[C@@H](CSC1CC(=O)N(CCCCCC(=O)Nc2ccccc2)C1=O)C(=O)NCc1ccccc1 (stereo partly drawn) [Conjugate-1′] :: 53

Entry COC(=O)CC(SC[C@H](NC(C)=O)C(=O)NCc1ccccc1)C(=O)NCCCCCC(=O)Nc1ccccc1 (stereo partly drawn) [Conjugate-1] , Remaining amount reported as 96
